# Test system: ovarian A2780 cells
# assay: Crystal violet cell viability of ovarian A2780 cells, bortezomib with or without AS-7 (72 hours)
# Format: cell-based, human
# assaySetup: Homo sapiens, A2780, 72 h, in the absence of AS-7; 72 hours; crystal violet; read-out: IC50 of the cytotoxic effect of bortezomib towards ovarian A2780 cells
pIC50: −log10 of the molar value.
assayReadout: pIC50

Which pIC50 value belongs to CC(C)C[C@H](NC(=O)[C@H](Cc1ccccc1)NC(=O)c1cnccn1)B(O)O [bortezomib] ?
~7.89
